Answer each item with its documented Kd.
- Target or system: SARS-CoV-2 spike protein receptor binding domain (RBD2) (SARS-CoV-2, UniProt P0DTC2 319-537)
- Run description: flow cytometry, yeast-displayed scFv
Numbers only, in nM.

Here's what some known entries look like.
F07 scFv (scFv) scFv: SYVLTQPPSVSVAPGQTARITCGGNNIGSKSVHWYQQKPGQAPVLVVYDDSDRPSGIPERFSGSNSGNTATLIISRVEAGDEADYYCQVWDSSSVHYVFGTGTKLTVLSGGSTITSYNVYYTKLSSSGTQVQLVQSGAEVKKPGSSVRVSCKVSGYTFTGYYMHWVRQAPGQGLEWMGIINPSGGSTSYAQKFQGRVTMTRDTSTSTVYMELSSLRSEDTAVYYCARVRVGASDAFDIWGQGTMVTVSS | 67.5
G07 scFv (scFv) scFv: QSVLIQPPSASGTPGQRVTISCSGSNSNFGSNSVSWYQQRPGTAPKLLIEGNNQRPSGVPERFSGSKSGTSASLAISGLQSEDEAEYSCASWDDSLNAFVFGPGTKLTVLSGGSAITSYNVYYTKLSSSGTQVQLVQSGAEVKKPGESLKISCKGSGYSFTSYWIGWVRQMPGKGLEWMGIIYPGDSDIRYSPSFQGQVTISADKSFSSAYLQWSSLKASDTAMYYCARLGATGAFDIWGQGTTVTVSS | 60.3

Alright, here's another binder for you.
Request: Given B04 scFv (scFv) scFv: SYVLTQPPSVSVAPGKTARITCGGNNIGIRSVHWYQQKPGQAPVLVIYYDSDRPSGIPERFSGSKSGNTATLTISRVEAGDEADYYCQVWDSSSDHPVFGGGTKLTVLSGGSTITSYNVYYTKLSSSGTQVQLVESGAEVKKPGASVKVSCKASGYTFTRYYMHWVRQAPGQGLEWMGIINPSGGTTSYAQKFQGRVTMTRDTSTSTVYMELSSLRSEDTAVYYCARSFGELTSFDYWGQGTLVTVSS , respond with its Kd.
Result: 13.9
